target: UniProtKB P31645; assay: Inhibition of [3H]5-HT uptake into human SERT expressing HEK293 cells
assayReadout: IC50

*Q* Suppose we examine the compound CC(C)(C)CC(c1ccc(Cl)cc1)C1CCCCN1 (stereo not given) ; what IC50 value has been reported?
*A* > 8.3 µM

We now examine a further compound.
*Q* Suppose we examine the compound CCC(CC)C(c1ccc(Cl)cc1)C1CCCCN1 (stereo in doubt; form 1) ; what IC50 value has been reported?
*A* > 9.4 µM

----------
target: Sodium-dependent serotonin transporter (Homo sapiens, UniProt P31645); test: Inhibition of [3H]5-HT uptake into human SERT expressing HEK293 cells
Sequence (P31645 whole entry): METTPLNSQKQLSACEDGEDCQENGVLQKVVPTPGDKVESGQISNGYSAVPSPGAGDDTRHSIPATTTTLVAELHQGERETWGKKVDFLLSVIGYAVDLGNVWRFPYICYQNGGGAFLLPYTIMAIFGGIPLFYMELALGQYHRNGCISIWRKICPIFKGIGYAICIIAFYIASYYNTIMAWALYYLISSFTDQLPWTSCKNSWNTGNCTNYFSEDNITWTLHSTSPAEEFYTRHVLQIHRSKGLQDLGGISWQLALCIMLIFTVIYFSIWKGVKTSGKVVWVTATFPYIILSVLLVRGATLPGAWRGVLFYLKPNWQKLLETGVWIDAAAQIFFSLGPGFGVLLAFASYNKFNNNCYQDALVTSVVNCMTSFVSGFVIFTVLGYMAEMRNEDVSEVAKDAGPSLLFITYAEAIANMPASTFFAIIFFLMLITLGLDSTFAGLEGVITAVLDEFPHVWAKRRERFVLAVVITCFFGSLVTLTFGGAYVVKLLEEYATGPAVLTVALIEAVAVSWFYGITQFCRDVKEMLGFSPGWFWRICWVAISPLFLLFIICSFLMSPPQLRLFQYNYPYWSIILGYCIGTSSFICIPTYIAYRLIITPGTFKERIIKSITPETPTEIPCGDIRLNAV
pIC50: −log10 of the molar value.
assayReadout: pIC50

Reference set, count: 2
*Q* Suppose we examine the molecule CC(=O)C(c1ccccc1)C1CCCCN1 (stereo not drawn) ; what pIC50 value has been reported?
*A* < 5.01

*Q* Suppose we examine the molecule CC(C)CCC(c1ccc(Cl)cc1)C1CCCCN1 (stereo in doubt; form 2) ; what pIC50 value has been reported?
*A* < 5.08

We now examine a further molecule.
*Q* Suppose we examine the molecule COC(=O)C(c1ccc(Cl)cc1)C1CCCCN1 (stereo in doubt; form 2) ; what pIC50 value has been reported?
*A* < 2.00
